- Test system: L1210 leukemia ip in BDF1 mice, survival T/C
- assay.text: NCI In Vivo Anticancer Drug Screen. Data for tumor model L1210 Leukemia (intraperitoneal) in B6D2F1 (BDF1) mice
- condition.label: endpoint: mean survival time; dose: 200.0 mg/kg/injection; schedule: Q01DX009 (ip); vehicle: saline with Tween-80; higher = longer survival
Toxic doses and inconclusive results are not listed.
Listing of entries alongside the reported T/C.
measure: T/C

compound: COc1ccc(C(=O)O)c(O)c1O
obs.value: 104 % of control
--
compound: CC1CN=C(c2ccc(Br)cc2)O1 (stereo not drawn)
obs.value: 89 % of control
--
compound: COc1ccc(/C(C)=C\C(=O)O)cc1
obs.value: 102 % of control
--
compound: Cc1c2ccncc2c(C)c2c1[nH]c1ccc(Cl)cc12
obs.value: 92 % of control
--
compound: NC1=NN(c2ccccc2)C(=O)/C1=C\c1ccccc1
obs.value: 91 % of control
--
compound: C/C(=N/N(C)C)c1ccccn1
obs.value: 95 % of control
--
compound: O=[N+]([O-])c1ccc2[nH]c3c(c2c1)CSCC3
obs.value: 88 % of control
--
compound: COc1cc2nn(-c3ccccc3N)nc2cc1OC
obs.value: 102 % of control
--
compound: O=C(Nc1ccc(F)c([N+](=O)[O-])c1)Nc1ccccc1C(F)(F)F
obs.value: 96 % of control
--
compound: CC(=O)NC(CSCc1c2ccccc2c(C)c2ccccc12)C(=O)O (stereo not drawn)
obs.value: 88 % of control
--
compound: Cc1cccc(CC23CC4CC(CC(C4)C2)C3)c1
obs.value: 90 % of control
--
compound: O=C(O)c1ccc(OCC(=O)c2ccccc2)cc1
obs.value: 89 % of control
--
compound: CC(/C=C/c1ccc(O)cc1)=N\O
obs.value: 100 % of control

* * *

- Tested on: L1210 leukemia ip in BDF1 mice, survival T/C
- assay.text: NCI In Vivo Anticancer Drug Screen. Data for tumor model L1210 Leukemia (intraperitoneal) in B6D2F1 (BDF1) mice
- condition.label: endpoint: mean survival time; dose: 200.0 mg/kg/injection; schedule: Q04DX003 (ip); vehicle: saline; higher = longer survival
Toxic doses and inconclusive results are not listed.
Listing of entries alongside the reported T/C.

molecule: Cn1cnc(=O)c2ccccc21
experimental.system: L1210 leukemia ip in BDF1 mice, survival T/C
T/C: 100 % of control

molecule: COc1ccc2nc3cc(Cl)ccc3c(NCCO)c2c1
experimental.system: L1210 leukemia ip in BDF1 mice, survival T/C
T/C: 96 % of control

molecule: O=C(O)CCCCCNC(=O)c1ccccc1
experimental.system: L1210 leukemia ip in BDF1 mice, survival T/C
T/C: 100 % of control

molecule: CCCCCCCCCOC(=O)NC1c2ccccc2Oc2ccccc21
experimental.system: L1210 leukemia ip in BDF1 mice, survival T/C
T/C: 98 % of control

molecule: CC(=O)NC(C(=O)O)C(C)C(=O)O (stereo not drawn)
experimental.system: L1210 leukemia ip in BDF1 mice, survival T/C
T/C: 93 % of control

molecule: O=C(Nc1ccccc1O)C(O)C(O)C(O)C(O)CO (stereo not drawn)
experimental.system: L1210 leukemia ip in BDF1 mice, survival T/C
T/C: 97 % of control

molecule: c1ccc(CC(Cc2ccccc2)=[N+]2C3CCCC2CC3)cc1
experimental.system: L1210 leukemia ip in BDF1 mice, survival T/C
T/C: 101 % of control

molecule: CC(C)Cc1c(N)nc(=S)[nH]c1C(=O)O
experimental.system: L1210 leukemia ip in BDF1 mice, survival T/C
T/C: 94 % of control

molecule: CCN(CC)C(=O)OCCCN(C)C
experimental.system: L1210 leukemia ip in BDF1 mice, survival T/C
T/C: 105 % of control

molecule: CCOC(=O)CSCc1cc(=O)[nH]c(=O)[nH]1
experimental.system: L1210 leukemia ip in BDF1 mice, survival T/C
T/C: 98 % of control

molecule: CCS(=O)(=O)N(CC(=O)O)Cc1ccccc1
experimental.system: L1210 leukemia ip in BDF1 mice, survival T/C
T/C: 96 % of control

molecule: CC(=O)NCC1CCCO1 (stereo not drawn)
experimental.system: L1210 leukemia ip in BDF1 mice, survival T/C
T/C: 108 % of control

molecule: O=C1NC(c2ccccc2)(c2ccccc2)C(=O)N1CC1CO1 (stereo not drawn)
experimental.system: L1210 leukemia ip in BDF1 mice, survival T/C
T/C: 102 % of control

* * *

- Tested on: L1210 leukemia ip in BDF1 mice, survival T/C
- assay.text: NCI In Vivo Anticancer Drug Screen. Data for tumor model L1210 Leukemia (intraperitoneal) in B6D2F1 (BDF1) mice
- condition.label: endpoint: mean survival time; dose: 100.0 mg/kg/injection; schedule: Q04DX003 (ip); vehicle: saline; higher = longer survival
Toxic doses and inconclusive results are not listed.

compound: CC[n+]1c(C)sc2cc(Cl)c(-c3ccccc3)cc21
T/C: 98 % of control
//
compound: N=C(N)C[n+]1ccccc1
T/C: 95 % of control
//
compound: CC1=C(CC/C(C)=C/CCC(=O)O)C(C)(C)CCC1
T/C: 116 % of control
//
compound: O=C1C2CCN(CC2)C1C(c1ccccc1)c1ccccc1 (configuration not stated)
T/C: 96 % of control
//
compound: CC(CN)N(C)C (configuration not stated)
T/C: 93 % of control
//
compound: NCCCc1nc(N)nc(N)c1-c1ccc(Cl)cc1
T/C: 103 % of control
//
compound: CN(CC(=O)O)C(=O)CN=Cc1ccccc1
T/C: 96 % of control

* * *

- System: L1210 leukemia ip in BDF1 mice, survival T/C
- assay.text: NCI In Vivo Anticancer Drug Screen. Data for tumor model L1210 Leukemia (intraperitoneal) in B6D2F1 (BDF1) mice
- condition.label: endpoint: mean survival time; dose: 400.0 mg/kg/injection; schedule: Q04DX003 (ip); vehicle: other; higher = longer survival
Inconclusive results and toxic doses are left out.
Listing of entries alongside the reported T/C.

molecule: CN(C)S(=O)(=O)c1ccc(NC(=O)C(Cl)Cl)cc1
T/C: 101 % of control
--
molecule: CCOC(=O)C(C)S(=O)(=O)/C(=C\N1CCCCC1)CC (stereo not drawn)
T/C: 102 % of control
--
molecule: COC(=O)Nc1cccc(C)c1C
T/C: 108 % of control
--
molecule: CCN(CC)S(=O)(=O)c1cccc(C(O)CC(O)(C(F)(F)F)C(F)(F)F)c1 (stereo not drawn)
T/C: 96 % of control
--
molecule: CC(C)N(C(=O)CSc1c(Cl)c(Cl)c(Cl)c(Cl)c1Cl)C(C)C
T/C: 94 % of control
--
molecule: CCc1cccc(CC)c1N=C=Nc1c(CC)cccc1CC
T/C: 104 % of control
--
molecule: Oc1c(Cl)cc(Cl)cc1CNCc1ccccc1
T/C: 110 % of control
--
molecule: CC(CCC(=O)O)(c1cc(Br)c(O)c(Br)c1)c1cc(Br)c(O)c(Br)c1
T/C: 109 % of control

* * *

Listing of entries alongside the reported T/C.
- Test system: L1210 leukemia ip in BDF1 mice, survival T/C
- assay.text: NCI In Vivo Anticancer Drug Screen. Data for tumor model L1210 Leukemia (intraperitoneal) in B6D2F1 (BDF1) mice
- condition.label: endpoint: mean survival time; dose: 25.0 mg/kg/injection; schedule: Q01DX001 (ip); vehicle: saline with Tween-80; higher = longer survival
Inconclusive results and toxic doses are left out.
measure: T/C

molecular.string: CCCCNC(=O)Nc1ccc(Cl)cc1
measure: T/C
obs.value: 100 % of control

molecular.string: CC1(C)N=C(N)N=C(N)N1c1cc(Cl)cc(CCNC(=O)Nc2ccc(S(=O)(=O)F)cc2)c1
measure: T/C
obs.value: 98 % of control

molecular.string: COC(=O)/C(=C\c1ccccc1)CN1CCCCC1
measure: T/C
obs.value: 101 % of control

molecular.string: [O-]/[N+](=N/O)c1ccc(Cl)cc1
measure: T/C
obs.value: 96 % of control

* * *

Listing of entries alongside the reported T/C.
- Tested on: L1210 leukemia ip in BDF1 mice, survival T/C
- assay.text: NCI In Vivo Anticancer Drug Screen. Data for tumor model L1210 Leukemia (intraperitoneal) in B6D2F1 (BDF1) mice
- condition.label: endpoint: mean survival time; dose: 50.0 mg/kg/injection; schedule: Q01DX001 (ip); vehicle: saline with Tween-80; higher = longer survival
Inconclusive results and toxic doses are left out.

molecular.string: O=C(O)c1sc(C(=O)O)c(O)c1O
experimental.system: L1210 leukemia ip in BDF1 mice, survival T/C
T/C: 100 % of control
//
molecular.string: CCCCNC(=O)Nc1ccc(Cl)cc1
experimental.system: L1210 leukemia ip in BDF1 mice, survival T/C
T/C: 88 % of control
//
molecular.string: Cc1cc(C)cc(N=Cc2ccccc2)c1
experimental.system: L1210 leukemia ip in BDF1 mice, survival T/C
T/C: 98 % of control
//
molecular.string: S=C(Nc1cc2c3c(c1)CCCN3CCC2)Nc1cc2c3c(c1)CCCN3CCC2
experimental.system: L1210 leukemia ip in BDF1 mice, survival T/C
T/C: 107 % of control
